# Lookup of reported morphology score keyed by entry
Tested on: Vero E6 infected with SARS-CoV-2
Experiment: morphology score (similarity to uninfected cells); higher = more like uninfected cells
Details: 24 h
No unit in the answer, only the number.

Example entries begin here.
compound="CC(C)NCC(O)c1ccccc1Cl (centres undefined) [clorprenaline] (10 µM)" endpoint="morphology score" experimental_value=0.125
compound="CCOc1cc2ncc(C#N)c(Nc3ccc(F)c(Cl)c3)c2cc1NC(=O)/C=C/CN(C)C [pelitinib] (10 µM)" endpoint="morphology score" experimental_value=-0.188
compound="Cc1cc2c(N3CCCC3)nc(N3CCCC3)nc2n1C (10 µM)" endpoint="morphology score" experimental_value=0.452
compound="CC(C)C[C@H](NC(=O)[C@H](Cc1ccccc1)NC(=O)c1cnccn1)B(O)O [bortezomib] (10 µM)" endpoint="morphology score" experimental_value=-0.0961

Ask: Please report morphology score for the following compound: Cc1[nH]c(=O)c(C#N)cc1-c1ccncc1 [milrinone] (10 µM)
Result: 0.236

Ask: Please report morphology score for the following compound: Cc1cc([C@@H](C)Nc2ccccc2C(=O)O)c2nc(N3CCOCC3)cc(=O)n2c1 (10 µM)
Result: -0.0702

Ask: Please report morphology score for the following compound: Oc1cc2c(cc1O)[C@H](Cc1cccc3ccccc13)NCC2 (10 µM)
Result: -0.102

Ask: Please report morphology score for the following compound: COc1ncc2cc(C(=O)Nc3cc(C(=O)NCc4cccc(Cl)c4)ccc3Cl)c(=O)[nH]c2n1 (10 µM)
Result: -0.0693

Ask: Please report morphology score for the following compound: N#Cc1c(O)c2c(-c3ccc(-c4ccccc4O)cc3)csc2[nH]c1=O (10 µM)
Result: 0.0882

* * *

System: Vero E6 infected with SARS-CoV-2
Assay: inhibition of SARS-CoV-2 cytopathic effect; higher = more antiviral protection, active = above 15
Conditions: 833.33 nM; 48 h
Endpoint: inhibition of SARS-CoV-2 cytopathic effect

Example entries begin here.
compound="CC[C@@](C)(Nc1ccnc(-c2c[nH]c3ncccc23)n1)C(=O)NCC(F)(F)F [decernotinib]" experimental_value="1.86% (inactive)"
compound=CC(C)[C@H](C(=O)Nc1ccc(C(=O)NO)cc1)c1ccccc1 experimental_value="1.02% (inactive)"

Ask: Please report inhibition of SARS-CoV-2 cytopathic effect for the following compound: `CN1C(=O)N(c2cc(Cl)cc(Cl)c2)C(=O)[C@@]1(C)Cc1ccc(Br)cc1`
Result: -1.61% (inactive)

Ask: Please report inhibition of SARS-CoV-2 cytopathic effect for the following compound: CCOC(=O)C1=C(C)NC(=S)NC1c1cccc(O)c1 (stereo not given) [monastrol]
Result: 0.94% (inactive)

Ask: Please report inhibition of SARS-CoV-2 cytopathic effect for the following compound: OCCN1CCN(CCCN2c3ccccc3Sc3ccc(C(F)(F)F)cc32)CC1 [fluphenazine]
Result: -9.7% (inactive)

Ask: Please report inhibition of SARS-CoV-2 cytopathic effect for the following compound: C[C@@H](N)[C@@H](O)c1ccccc1 [1S,2R-phenylpropanolamine]
Result: -0.75% (inactive)

Ask: Please report inhibition of SARS-CoV-2 cytopathic effect for the following compound: `O=C(NCCCCCCNC(=O)ON=C1CCCCC1)ON=C1CCCCC1`
Result: 2.74% (inactive)

Ask: Please report inhibition of SARS-CoV-2 cytopathic effect for the following compound: CN(C)CCOC(c1ccccc1)c1ccccc1 [diphenhydramine]
Result: 0.48% (inactive)

Ask: Please report inhibition of SARS-CoV-2 cytopathic effect for the following compound: CC1(COc2ccc3c(c2)ncn3-c2ccc3cccc(N4CCC(N)CC4)c3n2)COC1 [crenolanib]
Result: 2.21% (inactive)

Ask: Please report inhibition of SARS-CoV-2 cytopathic effect for the following compound: Fc1ccc([C@@H]2CCNC[C@H]2COc2ccc3c(c2)OCO3)cc1 [paroxetine]
Result: -1.89% (inactive)

* * *

Test system: Vero E6 infected with SARS-CoV-2
Assay: SARS-CoV-2 infection rate relative to infected DMSO; higher = more infection, active = 60 or less
Conditions: 24 h
# Lookup of reported SARS-CoV-2 infection rate keyed by entry
Please respond with the number in % and leave the unit unwritten.

compound="Cc1ccc(C(=O)c2cc(O)c(O)c([N+](=O)[O-])c2)cc1 [tolcapone] (10 µM)" endpoint="SARS-CoV-2 infection rate" experimental_value=110
compound="CC(=O)N[C@H](Cc1ccc2ccccc2c1)C(=O)N[C@H](Cc1ccc(Cl)cc1)C(=O)N[C@H](Cc1cccnc1)C(=O)N[C@@H](CO)C(=O)N[C@@H](Cc1ccc(NC(=O)[C@@H]2CC(=O)NC(=O)N2)cc1)C(=O)N[C@H](Cc1ccc(NC(N)=O)cc1)C(=O)N[C@@H](CC(C)C)C(=O)N[C@@H](CCCCNC(C)C)C(=O)N1CCC[C@H]1C(=O)N[C@H](C)C(N)=O [degarelix] (10 µM)" endpoint="SARS-CoV-2 infection rate" experimental_value=115
compound="N#C/C(=C\\c1cn(-c2ccccc2)c2ccccc12)C(=O)O (10 µM)" endpoint="SARS-CoV-2 infection rate" experimental_value=99.5

Ask: Please report SARS-CoV-2 infection rate for the following compound: COc1nc(N)nc2c1ncn2[C@@H]1O[C@H](CO)[C@@H](O)[C@@H]1O [nelarabine] (10 µM)
Result: 109

Ask: Please report SARS-CoV-2 infection rate for the following compound: O=C(O)CCn1c2c(c3ccccc31)C[C@H](NS(=O)(=O)c1ccc(F)cc1)CC2 [ramatroban] (10 µM)
Result: 102

Ask: Please report SARS-CoV-2 infection rate for the following compound: CCOc1cc2ncc(C#N)c(Nc3ccc(F)c(Cl)c3)c2cc1NC(=O)/C=C/CN(C)C [pelitinib] (10 µM)
Result: 110

Ask: Please report SARS-CoV-2 infection rate for the following compound: O=C(O)CCCC[C@@H]1CCSS1 [thioctic-acid] (10 µM)
Result: 106

Ask: Please report SARS-CoV-2 infection rate for the following compound: FC(F)(F)C(F)(F)C(F)(F)N(C(F)(F)C(F)(F)C(F)(F)F)C(F)(F)C(F)(F)C(F)(F)F [perfluamine] (10 µM)
Result: 92.5

Ask: Please report SARS-CoV-2 infection rate for the following compound: COc1ccc2cc1Oc1ccc(cc1)C[C@H]1c3c(cc4c(c3Oc3cc5c(cc3OC)CCN(C)[C@@H]5C2)OCO4)CCN1C [cepharanthine] (10 µM)
Result: 77.5

Ask: Please report SARS-CoV-2 infection rate for the following compound: CN1[C@@H]2CC[C@H]1C[C@@H](OC(=O)N1Cc3ccccc3NC1=O)C2 (10 µM)
Result: 108

Ask: Please report SARS-CoV-2 infection rate for the following compound: Clc1ccc(C2=CCC[C@H]3CC[C@@H]2N3)cn1 (10 µM)
Result: 110

Ask: Please report SARS-CoV-2 infection rate for the following compound: C[C@@H]1CN(Cc2ncccn2)C[C@H]1c1nc2c(cnn2C2CCOCC2)c(=O)[nH]1 (10 µM)
Result: 108

Ask: Please report SARS-CoV-2 infection rate for the following compound: CN(c1ncccc1CNc1nc(Nc2ccc3c(c2)CC(=O)N3)ncc1C(F)(F)F)S(C)(=O)=O (0.833333 µM)
Result: 106

Ask: Please report SARS-CoV-2 infection rate for the following compound: CNC(=S)C1(c2ccccn2)CCCS1 (centres undefined) [picartamide] (10 µM)
Result: 106

Ask: Please report SARS-CoV-2 infection rate for the following compound: COc1ccc(-c2c(C)c(C(=O)NN3CCCCC3)nn2-c2ccc(Cl)cc2Cl)cc1 (10 µM)
Result: 86

Ask: Please report SARS-CoV-2 infection rate for the following compound: CN(C)c1ccc(/C=C2\CCCN=C2c2cccnc2)cc1 [DMAB-anabaseine] (10 µM)
Result: 96.5

Ask: Please report SARS-CoV-2 infection rate for the following compound: O=C(O)C(Cl)Cl [dichloroacetate] (10 µM)
Result: 88.5

Ask: Please report SARS-CoV-2 infection rate for the following compound: C[C@@H](O)[C@H]1C(=O)N2C(C(=O)[O-])=C(SC3Cn4cnc[n+]4C3)[C@H](C)[C@H]12 (some centres undefined) [biapenem] (10 µM)
Result: 99.5

Ask: Please report SARS-CoV-2 infection rate for the following compound: C=C1/C(=C\C=C2/CCC[C@]3(C)[C@@H]([C@H](C)CCCC(C)C)CC[C@@H]23)C[C@@H](O)C[C@@H]1O [alfacalcidol] (10 µM)
Result: 98

Ask: Please report SARS-CoV-2 infection rate for the following compound: C=CCNC1=C2C[C@@H](C)C[C@H](OC)[C@H](O)[C@@H](C)/C=C(\C)[C@H](OC(N)=O)[C@@H](OC)/C=C\C=C(/C)C(=O)NC(=CC1=O)C2=O [tanespimycin] (10 µM)
Result: 114

Ask: Please report SARS-CoV-2 infection rate for the following compound: CN(C)CC/C=C1/c2ccccc2Sc2ccc(Cl)cc21 [chlorprothixene] (10 µM)
Result: 68.5

Ask: Please report SARS-CoV-2 infection rate for the following compound: N=C(N)NCCC[C@@H](NC(=O)[C@@H]1CCCN1C(=O)[C@@H]1CSSCCC(=O)N[C@@H](Cc2ccc(O)cc2)C(=O)N[C@@H](Cc2ccccc2)C(=O)N[C@@H](CCC(N)=O)C(=O)N[C@@H](CC(N)=O)C(=O)N1)C(=O)NCC(N)=O [desmopressin-acetate] (10 µM)
Result: 97.5

Ask: Please report SARS-CoV-2 infection rate for the following compound: c1coc(CNc2ncnc3[nH]cnc23)c1 [kinetin] (10 µM)
Result: 104
